- Test system: Lefty1
- TEST NAME: Lefty1 protein binding to printed compounds – biochemical, small-molecule microarray, 635/667 nm fluorescence, primary screen (AID 1139)
- RUN PARAMETERS: fluorescence 635/667, higher = more signal

[
  {
    "COMPOUND": "C=CC[C@]1(C(=O)N2CCOCC2)N=C(c2ccc(OCCCO)cc2)O[C@H]1c1ccccc1CN=[N+]=[N-]",
    "composite z-score": 1.05
  },
  {
    "COMPOUND": "C=CCNC(=O)[C@@H]1[C@H]2C(=O)O[C@H](c3ccccc3)[C@H](c3ccccc3)N2[C@H](c2ccc(O)cc2)[C@@]12C(=O)Nc1ccc(C#CCCO)cc12",
    "composite z-score": -0.836
  },
  {
    "COMPOUND": "C=CCOC(=O)[C@@H]1[C@H]2C(=O)O[C@H](c3ccccc3)[C@H](c3ccccc3)N2[C@H](c2ccc(OCCOC(=O)[C@H]3C[C@H]4C(=O)N[C@@H](Cc5ccccc5)C(=O)N4[C@H]3c3cccc(OCCO)c3)cc2)[C@@]12C(=O)Nc1ccc(I)cc12",
    "composite z-score": 1.33
  },
  {
    "COMPOUND": "CC(C)(C)OC(=O)CC[C@@]1(C(=O)N2CCCCC2)N=C(c2ccc(OCCCO)cc2)O[C@@H]1c1ccccc1N=[N+]=[N-]",
    "composite z-score": 0.0141
  },
  {
    "COMPOUND": "CC(C)(C)N1CC=CC23O[C@@H]4C=CCCOC(=O)C4[C@H]2C(=O)N(CCCO)[C@@H]3C1=O (stereo partly specified)",
    "composite z-score": -0.292
  },
  {
    "COMPOUND": "COCCOC(=O)N1C(=O)[C@@]2(c3cc(C#CCNC(N)=O)ccc31)[C@H](C(N)=O)[C@H]1C(=O)O[C@H](c3ccccc3)[C@H](c3ccccc3)N1[C@@H]2c1ccc(OCCO)cc1",
    "composite z-score": 1.46
  }
]

---

- TEST NAME: budding yeast growth modifiers under rapamycin – strain BY4716, OD600, 96 h, primary screen (AID 1091); note: test concentration not given here
- RUN PARAMETERS: S. cerevisiae BY4716 + rapamycin, higher = more signal, called active from +8 up or from −8 down

[
  {
    "MOLECULE": "C=CCOC(=O)[C@H]1[C@@H]2C(=O)O[C@@H](c3ccccc3)[C@@H](c3ccccc3)N2[C@@H](c2ccc(OCCOC(=O)[C@H]3C[C@H]4C(=O)N[C@@H](CCCCN(C)C)C(=O)N4[C@H]3c3ccc(O)cc3)cc2)[C@]12C(=O)Nc1ccccc12",
    "z-score": -0.713
  },
  {
    "MOLECULE": "CC(C)CNC(=O)[C@@]1(c2ccc([N+](=O)[O-])cc2)CC(=O)N(C(C)C)[C@@H]1c1ccc(CO)cc1",
    "z-score": -0.812
  },
  {
    "MOLECULE": "O=C1C2C=CC(C(O)c3ccc(Br)cc3)N(Nc3ccccc3)C2C(=O)N1c1ccccc1 (stereo not drawn)",
    "z-score": 0.84
  }
]

---

- TEST NAME: resazurin metabolic signal in A549 cells – cell-based, resazurin fluorescence, 24 h, PK04 Diversity Set, profiling panel (AID 1171); note: test concentration not given here
- RUN PARAMETERS: A549 viability, higher = more signal, called active from +8 up or from −8 down
Criterion: z-score strictly less than -0.2. Met: condition met. Not met: condition not met.

[
  {
    "MOLECULE": "CCCC[C@H]1OB(O)C[C@H]2C1=C(COc1ccccc1)Cn1c(=O)n(-c3ccccc3)c(=O)n12",
    "ASSIGNED CATEGORY": "condition met"
  },
  {
    "MOLECULE": "COc1ccc(C#Cc2ccc3c(c2)[C@]2(C(=O)N3)[C@H](c3ccc(OCCO)cc3)N3[C@H](c4ccccc4)[C@H](c4ccccc4)OC(=O)[C@H]3[C@@H]2C(=O)N2CCN(c3ncccn3)CC2)cc1",
    "ASSIGNED CATEGORY": "condition not met"
  },
  {
    "MOLECULE": "O=C(C=C(CC(O)c1cccc(Cl)c1)OCCF)OCCF (centres undefined)",
    "ASSIGNED CATEGORY": "condition not met"
  },
  {
    "MOLECULE": "O=C(NCc1ccccc1)[C@]1(Cc2ccccc2)N=C(c2ccc(OCCCO)cc2)O[C@@H]1c1ccccc1",
    "ASSIGNED CATEGORY": "condition not met"
  },
  {
    "MOLECULE": "CC(C)CCC[C@@H](C)[C@H]1CC[C@@]2(C)C3=C(CC[C@]12C)[C@@]1(C)CC[C@H](OC(=O)c2ccc(N)cc2)C(C)(C)C1CC3 (some centres undefined)",
    "ASSIGNED CATEGORY": "condition not met"
  },
  {
    "MOLECULE": "CCCNC(=O)[C@@H]1c2ccccc2C(=O)N(CC23CC4CC(CC(C4)C2)C3)[C@H]1c1ccc(CO)cc1",
    "ASSIGNED CATEGORY": "condition not met"
  },
  {
    "MOLECULE": "COC(=O)c1c(CC[C@@H](CO)NC(=O)N[C@@H](C)Cn2cc(C3(O)CCCC3)nn2)oc(C(C)=O)c1C(=O)OC",
    "ASSIGNED CATEGORY": "condition met"
  },
  {
    "MOLECULE": "COc1ccc([Si](C)(C)[C@H]2[C@H](CCn3cc(CCO)nn3)O[C@@]3(C(=O)N(Cc4cccc(N5C(=O)c6cccc7cccc5c67)c4)c4ccccc43)[C@@H]2C)cc1",
    "ASSIGNED CATEGORY": "condition met"
  },
  {
    "MOLECULE": "COCC(=C=CC[C@@H](O)c1ccccc1OCCO)C[C@@H](O)COCc1ccccc1",
    "ASSIGNED CATEGORY": "condition not met"
  },
  {
    "MOLECULE": "COC(=O)[C@@]1(Cc2ccc(OC)cc2)[C@H]2c3cc(C(=O)N(C)C)n(CCF)c3C[C@H]2CN1C(=O)c1ccccc1",
    "ASSIGNED CATEGORY": "condition met"
  },
  {
    "MOLECULE": "CC(C)C[C@@H]1NC(=O)[C@@H]2C[C@H](C(=O)NCc3ccc(F)cc3)[C@H](c3ccc(O)cc3)N2C1=O",
    "ASSIGNED CATEGORY": "condition not met"
  },
  {
    "MOLECULE": "COC(=O)[C@@]1(Cc2ccccc2)[C@H]2c3cc(C(=O)N4CCCC4)n(Cc4ccccc4)c3C[C@H]2CN1C(=O)c1ccccc1",
    "ASSIGNED CATEGORY": "condition met"
  },
  {
    "MOLECULE": "COCCOC(=O)N1C(=O)[C@@]2(c3cc(C#Cc4ccc(OC)cc4)ccc31)[C@H](C(=O)N1CCc3cc(OC)c(OC)cc3C1)[C@H]1C(=O)O[C@H](c3ccccc3)[C@H](c3ccccc3)N1[C@@H]2c1ccc(OCCO)cc1",
    "ASSIGNED CATEGORY": "condition not met"
  }
]

---

Items are presented alongside their recorded composite z-score.
- ASSAYED TARGET: Torsin-1A-interacting protein 2 (Homo sapiens) (UniProt Q8NFQ8)
- Sequence (Q8NFQ8 whole entry, looked up): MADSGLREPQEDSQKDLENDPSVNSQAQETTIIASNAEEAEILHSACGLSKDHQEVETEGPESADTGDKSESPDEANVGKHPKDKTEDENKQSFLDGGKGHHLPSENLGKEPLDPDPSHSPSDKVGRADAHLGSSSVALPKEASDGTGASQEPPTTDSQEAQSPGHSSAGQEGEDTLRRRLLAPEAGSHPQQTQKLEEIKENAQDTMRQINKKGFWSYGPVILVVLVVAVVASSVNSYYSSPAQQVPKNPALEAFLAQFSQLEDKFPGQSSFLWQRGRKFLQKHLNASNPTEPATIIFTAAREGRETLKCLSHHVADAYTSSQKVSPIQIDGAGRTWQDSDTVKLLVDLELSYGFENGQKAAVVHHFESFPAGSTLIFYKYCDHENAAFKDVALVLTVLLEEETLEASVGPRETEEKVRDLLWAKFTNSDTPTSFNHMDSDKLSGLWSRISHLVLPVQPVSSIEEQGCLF
- TEST NAME: small molecules binding lysate-expressed LULL1 – cell lysate, human LULL1 lysate, 635/667 nm fluorescence, primary screen (AID 1092);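 note: probe is lysate of COS7 cells overexpressing human LULL1; score merges per-feature 667 nm fluorescence with signal-to-noise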
- RUN PARAMETERS: small-molecule microarray, hLULL1 lysate binding, 635 nm fluorescence; higher = more signal
QUANTITY KIND: composite z-score

[
  {
    "MOLECULE": "CC(C)c1ccc(NN2C(C(O)c3cccs3)C=CC3C(=O)N(c4ccccc4)C(=O)C32)cc1 (stereo not given)",
    "QUANTITY KIND": "composite z-score",
    "VALUE OBSERVED": 3.36
  },
  {
    "MOLECULE": "COc1cc(C(O)C2C=CC3C(=O)NC(=O)C3N2Nc2ccc(Cl)cc2Cl)cc(OC)c1OC (stereo not given)",
    "QUANTITY KIND": "composite z-score",
    "VALUE OBSERVED": 3.27
  },
  {
    "MOLECULE": "O=C1c2ccccc2[C@](Cc2ccccc2I)(C(=O)NC2CC2)[C@H](c2ccc(CO)cc2)N1Cc1ccccc1Cl",
    "QUANTITY KIND": "composite z-score",
    "VALUE OBSERVED": 1.91
  },
  {
    "MOLECULE": "C=C(COC)/C(=C/C[C@@H](OC(=O)c1ccncc1)c1cccc(OCCO)c1)c1cc(C(=O)OC)ccc1OC",
    "QUANTITY KIND": "composite z-score",
    "VALUE OBSERVED": 0.512
  },
  {
    "MOLECULE": "COc1ccccc1CN1C(=O)c2ccccc2[C@@]2(Cc3ccccc3N(C3CC3)C2=O)[C@@H]1c1ccc(CO)cc1",
    "QUANTITY KIND": "composite z-score",
    "VALUE OBSERVED": 0.861
  },
  {
    "MOLECULE": "CN(C)C(=O)[C@@]1(CCS(=O)(=O)c2ccccc2)N=C(c2ccc(OCCCO)cc2)O[C@H]1c1ccccc1CN=[N+]=[N-]",
    "QUANTITY KIND": "composite z-score",
    "VALUE OBSERVED": 3.79
  },
  {
    "MOLECULE": "COCCCNC(=O)[C@@H]1c2ccccc2C(=O)N(Cc2cc(F)cc(C(F)(F)F)c2)[C@H]1c1ccc(CO)cc1",
    "QUANTITY KIND": "composite z-score",
    "VALUE OBSERVED": 0.0519
  },
  {
    "MOLECULE": "C=CCC(OC(C)=O)[C@@H]1[C@@H](N(Cc2ccc(-c3cccc(C(F)(F)F)c3)o2)C(=O)c2cccc3ccccc23)c2cc(OCCCO)ccc2N1C(=O)c1ccc(-c2ccccc2)cc1 (stereo not given in full)",
    "QUANTITY KIND": "composite z-score",
    "VALUE OBSERVED": -0.94
  },
  {
    "MOLECULE": "CC(C)N1CC=CC23O[C@@H]4C=CCOC(=O)[C@@H]4[C@H]2C(=O)N(CCCCCCO)[C@@H]3C1=O (stereo not given in full)",
    "QUANTITY KIND": "composite z-score",
    "VALUE OBSERVED": 3.29
  },
  {
    "MOLECULE": "C=CCNC(=O)[C@H]1[C@@H]2C(=O)O[C@@H](c3ccccc3)[C@@H](c3ccccc3)N2[C@@H](c2ccc(OCCO)cc2)[C@]12C(=O)N(C(=O)OCCOC)c1ccc(C#CC3=CCCCC3)cc12",
    "QUANTITY KIND": "composite z-score",
    "VALUE OBSERVED": 2.76
  },
  {
    "MOLECULE": "CN(C)C(=O)[C@@]1(Cc2ccccc2N=[N+]=[N-])N=C(c2ccc(OCCCO)cc2)O[C@H]1c1ccccc1N=[N+]=[N-]",
    "QUANTITY KIND": "composite z-score",
    "VALUE OBSERVED": 2.87
  },
  {
    "MOLECULE": "CN1C(=O)C2C=CC(C(O)COCc3ccccc3)N(Nc3ccccc3)C2C1=O (stereo not given)",
    "QUANTITY KIND": "composite z-score",
    "VALUE OBSERVED": 3.54
  },
  {
    "MOLECULE": "COCCCNC(=O)[C@@]1(Cc2ccccc2N=[N+]=[N-])N=C(c2ccc(OCCCO)cc2)O[C@H]1c1ccccc1CN=[N+]=[N-]",
    "QUANTITY KIND": "composite z-score",
    "VALUE OBSERVED": 3.49
  },
  {
    "MOLECULE": "O=C(Nc1cc(Br)ccc1C(=O)NCc1cccc(O)c1)c1ccccc1",
    "QUANTITY KIND": "composite z-score",
    "VALUE OBSERVED": 2.5
  },
  {
    "MOLECULE": "C=CCN1C(=O)[C@@]2(O[C@@H](CCO)[C@H]([Si](C)(C)c3ccc(OC)cc3)[C@H]2C)c2cc(NC(=O)[C@H](C)O)ccc21",
    "QUANTITY KIND": "composite z-score",
    "VALUE OBSERVED": 3.15
  }
]
